System: Escherichia coli DC0
ASSAY NOTES: MIC, in vitro agar dilution method
Assay type: cell-based
REPORTED CONDITIONS: E.c.2, Escherichia coli DC0
TEST READOUT: MIC (µg/mL)
Numbers only, in µg/mL.

I would be grateful if you could provide MIC for each of the following entries.
1. CO/N=C(\C(=O)N[C@@H]1C(=O)N2C(C(=O)[O-])=C(/C=C/C[N+]3(C)CCCCC3CO)CS[C@H]12)c1csc(N)n1 (stereo partly drawn)
2. CO/N=C(\C(=O)N[C@@H]1C(=O)N2C(C(=O)[O-])=C(/C=C/C[N+]3(C)CC[C@H](O)[C@H](O)C3)CS[C@H]12)c1csc(N)n1 (relative stereo)
3. CO/N=C(\C(=O)N[C@@H]1C(=O)N2C(C(=O)[O-])=C(/C=C/C[N+]3(C)C[C@H](O)C[C@H]3CO)CS[C@H]12)c1csc(N)n1 (stereo partly drawn)

0.049
0.049
0.049

###

Tested on: Pseudomonas aeruginosa 1592 E
ASSAY NOTES: MIC, in vitro agar dilution method
Type: cell-based
REPORTED CONDITIONS: P.a.2, Pseudomonas aeruginosa 1592 E; agar dilution; read-out: MIC
Please provide measured MIC for the entries that follow.
Numbers only, in µg/mL.

[[record]]
compound = "CO/N=C(\\C(=O)N[C@@H]1C(=O)N2C(C(=O)[O-])=C(/C=C/C[N+]3(C)CCC(O)CC3)CS[C@H]12)c1csc(N)n1 (stereo partly drawn) [1-g]"
value = 3.13

[[record]]
compound = "CO/N=C(\\C(=O)N[C@@H]1C(=O)N2C(C(=O)[O-])=C(/C=C/C[N+]3(C)CC[C@@H](O)[C@H](O)C3)CS[C@H]12)c1csc(N)n1 (relative stereo) [1-f]"
value = 1.56

[[record]]
compound = "CO/N=C(\\C(=O)N[C@@H]1C(=O)N2C(C(=O)[O-])=C(/C=C/C[N+](C)(CCO)CCO)CS[C@H]12)c1csc(N)n1 [1-d]"
value = 1.56

[[record]]
compound = "CO/N=C(\\C(=O)N[C@@H]1C(=O)N2C(C(=O)[O-])=C(/C=C/C[N+]3(C)C[C@H](O)[C@@H](O)C3)CS[C@H]12)c1csc(N)n1 [1-b]"
value = 1.56

[[record]]
compound = "CO/N=C(\\C(=O)N[C@@H]1C(=O)N2C(C(=O)[O-])=C(/C=C/C[N+]3(C)CC[C@H](O)[C@H](O)C3)CS[C@H]12)c1csc(N)n1 (relative stereo) [1-e]"
value = 3.13


Fill in the blank: the reported MIC of CO/N=C(\C(=O)N[C@@H]1C(=O)N2C(C(=O)[O-])=C(/C=C/C[N+]3(C)C[C@@H](O)[C@@H](O)C3)CS[C@H]12)c1csc(N)n1 (stereo partly drawn) [1-a] is ____. 3.13

###

Give MIC for every item shown.
System: Pseudomonas aeruginosa 1592 E
ASSAY NOTES: MIC, in vitro agar dilution method
Format: cell-based
REPORTED CONDITIONS: P.a.2, Pseudomonas aeruginosa 1592 E; agar dilution; read-out: MIC
Method: The MICs of the new cephalosporins of the present invention against Gram-positive and Gram-negative bacteria were determined by an in vitro agar dilution method. For comparisons, the MIC values of ceftazidime are also listed. In vitro antimicrobial activity of the cephalosporins (l) (MIC: P.a.2, Pseudomonas aeruginosa 1592 E;
Numbers only, in µg/mL.

Here is how some compounds turned out for MIC.
[[record]]
compound = "CO/N=C(\\C(=O)N[C@@H]1C(=O)N2C(C(=O)[O-])=C(/C=C/C[N+]3(C)CCCCC3CO)CS[C@H]12)c1csc(N)n1 (stereo partly drawn) [1-h]"
value = 3.13

[[record]]
compound = "CO/N=C(\\C(=O)N[C@@H]1C(=O)N2C(C(=O)[O-])=C(/C=C/C[N+]3(C)C[C@H](O)C[C@H]3CO)CS[C@H]12)c1csc(N)n1 (stereo partly drawn) [1-c]"
value = 3.13


Entry CON=C(C(=O)NC1C(=O)N2C(C(=O)[O-])=C(C=CC[N+]3(C)C4CCC3CC(O)C4)CSC12)c1csc(N)n1 (stereo not drawn) [1-i] has what MIC? 3.13

###

Recorded MIC values (Enterobacter cloacae P 99) are given below.
Answers are plain numbers, in µg/mL.

[[record]]
molecule = "CO/N=C(\\C(=O)N[C@@H]1C(=O)N2C(C(=O)[O-])=C(/C=C/C[N+]3(C)CCCCC3CO)CS[C@H]12)c1csc(N)n1 (stereo partly shown) [1-h]"
test_target = "Enterobacter cloacae P 99"
value = 3.13


Give MIC for each of the items listed below.
1. CO/N=C(\C(=O)N[C@@H]1C(=O)N2C(C(=O)[O-])=C(/C=C/C[N+]3(C)C[C@@H](O)[C@@H](O)C3)CS[C@H]12)c1csc(N)n1 (stereo partly shown) [1-a]
2. CO/N=C(\C(=O)N[C@@H]1C(=O)N2C(C(=O)[O-])=C(/C=C/C[N+]3(C)CCC(O)CC3)CS[C@H]12)c1csc(N)n1 (stereo partly shown) [1-g]

[6.25, 3.13]

// each molecule listed below needs its MIC
1. CO/N=C(\C(=O)N[C@@H]1C(=O)N2C(C(=O)[O-])=C(/C=C/C[N+](C)(CCO)CCO)CS[C@H]12)c1csc(N)n1 [1-d]
2. CO/N=C(\C(=O)N[C@@H]1C(=O)N2C(C(=O)[O-])=C(/C=C/C[N+]3(C)CC[C@H](O)[C@H](O)C3)CS[C@H]12)c1csc(N)n1 (relative stereo) [1-e]

6.25
6.25

Fill in MIC for each of the 3 molecules listed.
1. CO/N=C(\C(=O)N[C@@H]1C(=O)N2C(C(=O)[O-])=C(/C=C/C[N+]3(C)C[C@H](O)C[C@H]3CO)CS[C@H]12)c1csc(N)n1 (stereo partly shown) [1-c]
2. CO/N=C(\C(=O)N[C@@H]1C(=O)N2C(C(=O)[O-])=C(/C=C/C[N+]3(C)C[C@H](O)[C@@H](O)C3)CS[C@H]12)c1csc(N)n1 [1-b]
3. CC(C)(O/N=C(\C(=O)N[C@@H]1C(=O)N2C(C(=O)[O-])=C(C[n+]3ccccc3)CS[C@H]12)c1csc(N)n1)C(=O)O [Ceftazidime, ceftazidime, reference compound]

[3.13, 3.13, 100]

For each of the molecules below, note its MIC.
1. CON=C(C(=O)NC1C(=O)N2C(C(=O)[O-])=C(C=CC[N+]3(C)C4CCC3CC(O)C4)CSC12)c1csc(N)n1 (stereo not shown) [1-i]
2. CO/N=C(\C(=O)N[C@@H]1C(=O)N2C(C(=O)[O-])=C(/C=C/C[N+]3(C)CC[C@@H](O)[C@H](O)C3)CS[C@H]12)c1csc(N)n1 (relative stereo) [1-f]

[6.25, 12.5]

###

Tested on: Streptococcus pyogenes A 77
ASSAY NOTES: MIC, in vitro agar dilution method
Assay type: cell-based
REPORTED CONDITIONS: A77; S.p.2, Streptococcus pyogenes A 77; agar dilution; read-out: MIC
Protocol: The MICs of the new cephalosporins of the present invention against Gram-positive and Gram-negative bacteria were determined by an in vitro agar dilution method. For comparisons, the MIC values of ceftazidime are also listed. In vitro antimicrobial activity of the cephalosporins (l) (MIC: S.p.2, Streptococcus pyogenes A 77;
Task for the reader: assign each of the following compounds its reported MIC.
Answers are plain numbers, in ng/mL.

Hi, could you look up MIC for each item in my list?
1. CO/N=C(\C(=O)N[C@@H]1C(=O)N2C(C(=O)[O-])=C(/C=C/C[N+]3(C)CC[C@H](O)[C@H](O)C3)CS[C@H]12)c1csc(N)n1 (relative stereo) [1-e]
2. CO/N=C(\C(=O)N[C@@H]1C(=O)N2C(C(=O)[O-])=C(/C=C/C[N+](C)(CCO)CCO)CS[C@H]12)c1csc(N)n1 [1-d]
3. CO/N=C(\C(=O)N[C@@H]1C(=O)N2C(C(=O)[O-])=C(/C=C/C[N+]3(C)C[C@H](O)C[C@H]3CO)CS[C@H]12)c1csc(N)n1 (some centres unmarked) [1-c]
4. CO/N=C(\C(=O)N[C@@H]1C(=O)N2C(C(=O)[O-])=C(/C=C/C[N+]3(C)CCCCC3CO)CS[C@H]12)c1csc(N)n1 (some centres unmarked) [1-h]
5. CO/N=C(\C(=O)N[C@@H]1C(=O)N2C(C(=O)[O-])=C(/C=C/C[N+]3(C)C[C@H](O)[C@@H](O)C3)CS[C@H]12)c1csc(N)n1 [1-b]

1: 13; 2: 4; 3: 4; 4: 7; 5: 7
